- Test system: T1, human IgEλ (U266 derived) (human, UniProt P01854-1 1-428)
- T1 construct: Whole IgE purified from U266 cells (Ikeyama et al. 1986); labelled with europium cryptate or biotin in some assays; also called human IgE (U266-derived); human IgE lambda
- T1 sequence (P01854 other isoform, or with tags, fused parts or gaps): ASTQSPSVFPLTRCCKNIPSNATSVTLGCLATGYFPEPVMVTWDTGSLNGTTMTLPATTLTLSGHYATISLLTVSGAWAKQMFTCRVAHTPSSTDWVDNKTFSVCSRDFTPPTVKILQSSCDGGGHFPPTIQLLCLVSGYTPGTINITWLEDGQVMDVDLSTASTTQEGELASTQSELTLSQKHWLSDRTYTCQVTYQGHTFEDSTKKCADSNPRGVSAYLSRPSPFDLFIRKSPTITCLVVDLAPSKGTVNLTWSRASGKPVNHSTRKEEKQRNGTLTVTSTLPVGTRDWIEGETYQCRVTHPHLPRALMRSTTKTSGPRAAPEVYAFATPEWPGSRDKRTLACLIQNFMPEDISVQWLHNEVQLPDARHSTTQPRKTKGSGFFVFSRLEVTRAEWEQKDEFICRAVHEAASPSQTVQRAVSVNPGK
- Assay comment: HTRF competition: scFv against Eu-cryptate human IgE binding to human FcεRI-Fc
The binders listed here are annotated with their IC50.
Give the number; nM is assumed, so skip it.

See these solved cases before continuing.
- Binder: "Antibody 9 scFv (scFv, V domains shown, Purified scFv, non-germlined) VH: QVQLVQSGAEVKKPGATVKLSCKVYGYIFTDYNIYWVRQAPGKGLEWMGLIDPDNGETFYAEKFQGRATMTADTSSDRAYMELTSLTFEDTATYYCATVTLRSAKGGYDYWGRGTLVTVSS VL: QSVLTQPPSVSGAPGQRVTISCTGSSSNIGAGYDVHWYQQLPGTAPKLLIYDNFNRPSGVPDRFSGSKSGTSASLAIIGLQTEDEADYYCQSYDSPSSTSPFGTGTKLTVL"
  Measure unit: "nM"
  Measured: 9
- Binder: "Antibody 17 scFv (scFv, V domains shown, Purified scFv, non-germlined) VH: QVQLVQSGAEVKKPGATVKLSCKVYGYIFTDYNIYWVRQAPGKGLEWMGLIDPDNGETFYAEKFQGRATMTADTSSDRAYMELTSLTFEDTATYYCATVTLKSAKGGYDYWGRGTLVTVSS VL: QSVLTQPPSVSGAPGQRVTISCTGSSSNIGAGYDVHWYQQLPGTAPKLLIYDNFNRPSGVPDRFSGSKSGTSASLAIIGLQTEDEADYYCQSYDSQSSTSPFGTGTKLTVL"
  Measure unit: "nM"
  Measured: 6
- Binder: "Antibody 24 scFv (scFv, V domains shown, Purified scFv, non-germlined) VH: QVQLVQSGAEVKKPGATVKLSCKVYGYIFTDYNIYWVRQAPGKGLEWMGLIDPDNGETFYAEKFQGRATMTADTSSDRAYMELTSLTFEDTATYYCATVTLKTAKGGYDYWGRGTLVTVSS VL: QSVLTQPPSVSGAPGQRVTISCTGSSSNIGAGYDVHWYQQLPGTAPKLLIYDNFNRPSGVPDRFSGSKSGTSASLAIIGLQTEDEADYYCQSYDSRNGYGGFGTGTKLTVL"
  Measure unit: "nM"
  Measured: 9

Exercise: Reported IC50 for Antibody 14 scFv (scFv, V domains shown, Purified scFv, non-germlined) VH: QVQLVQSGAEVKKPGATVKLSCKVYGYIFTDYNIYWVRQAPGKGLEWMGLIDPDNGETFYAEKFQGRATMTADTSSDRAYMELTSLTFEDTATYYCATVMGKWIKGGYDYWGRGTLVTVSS VL: QSVLTQPPSVSGAPGQRVTISCTGSSSNIGAGYDVHWYQQLPGTAPKLLIYDNFNRPSGVPDRFSGSKSGTSASLAIIGLQTEDEADYYCQSYDSHHRHSPFGTGTKLTVL : what is it?
Solution: 8

Exercise: Same again, this time with Antibody 3 scFv (scFv, V domains shown, Purified scFv, non-germlined; not shown: scFv linker and any tags; the libraries are only cited to Vaughan et al. 1996) VH: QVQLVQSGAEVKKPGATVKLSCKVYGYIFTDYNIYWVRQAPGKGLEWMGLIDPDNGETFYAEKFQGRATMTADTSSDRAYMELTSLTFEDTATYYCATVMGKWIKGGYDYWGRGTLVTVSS VL: QSVLTQPPSVSGAPGQRVTISCTGSSSNIGAGYDVHWYQQLPGTAPKLLIYDNFNRPSGVPDRFSGSKSGTSASLAIIGLQTEDEADYYCQSYDSTFNHAPFGTGTKLTVL
Solution: 5
